# assayInfo: Bioavailability in Beagle dog at 0.10 mg/kg, po and iv
# Assay type: ADME, organism-based, Canis lupus familiaris
# conditionDescription: in vivo, 0.1 mg/kg

[
  {
    "smilesStr": "CC(C)Sc1cc(-c2ccc(CCNC[C@H](O)c3ccccc3)cc2)ccc1C(=O)NS(C)(=O)=O.Cl",
    "bioavailability / %": 62
  }
]

###

# testedSystem: UniProt:P13945
# Sequence (P13945 whole entry): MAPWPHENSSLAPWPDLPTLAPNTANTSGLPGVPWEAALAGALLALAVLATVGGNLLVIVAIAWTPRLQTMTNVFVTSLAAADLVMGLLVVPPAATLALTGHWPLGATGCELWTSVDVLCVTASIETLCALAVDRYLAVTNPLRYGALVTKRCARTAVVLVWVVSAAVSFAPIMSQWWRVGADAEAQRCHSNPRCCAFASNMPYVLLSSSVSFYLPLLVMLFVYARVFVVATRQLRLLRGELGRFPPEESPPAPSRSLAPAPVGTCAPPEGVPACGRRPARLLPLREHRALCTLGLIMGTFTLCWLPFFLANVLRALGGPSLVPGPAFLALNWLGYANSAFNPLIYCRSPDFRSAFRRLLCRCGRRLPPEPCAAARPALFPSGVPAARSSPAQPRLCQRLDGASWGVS
# assayInfo: Agonist activity at human recombinant beta3 adrenergic receptor expressed in CHO cells assessed as cAMP accumulation by enzyme immunoassay
# Assay type: functional, cell-based
# conditionDescription: read-out: EC50
propertyName: EC50 (nM)

[
  {
    "smilesStr": "CS(=O)(=O)NC(=O)c1ccc(-c2ccc(CCNC[C@H](O)c3ccccc3)cc2)cc1OC1CCCC1",
    "propertyName": "EC50",
    "unit": "nM",
    "resultValue": 0.62
  },
  {
    "smilesStr": "CC(C)Cc1cc(-c2ccc(CCNC[C@H](O)c3cccnc3)cc2)ccc1C(=O)NS(C)(=O)=O.Cl.Cl",
    "propertyName": "EC50",
    "unit": "nM",
    "resultValue": 0.32
  },
  {
    "smilesStr": "CC(C)Nc1cc(-c2ccc(CCNC[C@H](O)c3cccnc3)cc2)ccc1C(=O)NS(C)(=O)=O.Cl.Cl.Cl",
    "propertyName": "EC50",
    "unit": "nM",
    "resultValue": 0.2
  },
  {
    "smilesStr": "CS(=O)(=O)NC(=O)c1ccc(-c2ccc(CCNC[C@H](O)c3ccccc3)cc2)cc1Oc1ccccc1.Cl",
    "propertyName": "EC50",
    "unit": "nM",
    "resultValue": 0.6
  }
]

###

# assayInfo: Bioavailability in rat at 0.32 mg/kg, po and iv by cassette assay
# Assay type: ADME, organism-based
# conditionDescription: in vivo
propertyName: bioavailability (%)

[
  {
    "smilesStr": "CC(C)Nc1cc(-c2ccc(CCNC[C@H](O)c3ccccc3)cc2)ccc1C(=O)NS(C)(=O)=O.Cl.Cl",
    "propertyName": "bioavailability",
    "resultValue": 20
  },
  {
    "smilesStr": "CC(C)Sc1cc(-c2ccc(CCNC[C@H](O)c3ccccc3)cc2)ccc1C(=O)NS(C)(=O)=O.Cl",
    "propertyName": "bioavailability",
    "resultValue": 41
  },
  {
    "smilesStr": "CC(C)Cc1cc(-c2ccc(CCNC[C@H](O)c3ccccc3)cc2)ccc1C(=O)NS(C)(=O)=O.Cl",
    "propertyName": "bioavailability",
    "resultValue": 40
  },
  {
    "smilesStr": "CS(=O)(=O)NC(=O)c1ccc(-c2ccc(CCNC[C@H](O)c3cnccc3N)cc2)cc1OC1CCCCC1.Cl.Cl",
    "propertyName": "bioavailability",
    "resultValue": 5
  },
  {
    "smilesStr": "CS(=O)(=O)NC(=O)c1ccc(-c2ccc(CCNC[C@H](O)c3cccnc3)cc2)cc1OC1CCCCC1.Cl.Cl",
    "propertyName": "bioavailability",
    "resultValue": 25
  }
]

###

# assayInfo: Total clearance in Beagle dog at 0.10 mg/kg, iv
# conditionDescription: in vivo, 0.1 mg/kg
propertyName: clearance (mL/min/kg)

[
  {
    "smilesStr": "CC(C)Sc1cc(-c2ccc(CCNC[C@H](O)c3ccccc3)cc2)ccc1C(=O)NS(C)(=O)=O.Cl",
    "unit": "mL/min/kg",
    "resultValue": 5.1
  }
]
